System: human neutrophils
PROTOCOL: Ca2+ mobilization in human neutrophils
Assay type: cell-based
ASSAY_CONTEXT: Neutrophil, read-out: EC50 Ca2+ mobilization

- COMPOUND: "COc1cccc(Cc2cc(C)nn(CC(=O)Nc3ccc([N+](=O)[O-])cc3)c2=O)c1 [14p]"
  EC50: "21.7 µM"
